Numbers sourced from patent US20160326142A1.

Hi there, I'd appreciate the recorded Ki for every entry that follows.
Target protein (sequence): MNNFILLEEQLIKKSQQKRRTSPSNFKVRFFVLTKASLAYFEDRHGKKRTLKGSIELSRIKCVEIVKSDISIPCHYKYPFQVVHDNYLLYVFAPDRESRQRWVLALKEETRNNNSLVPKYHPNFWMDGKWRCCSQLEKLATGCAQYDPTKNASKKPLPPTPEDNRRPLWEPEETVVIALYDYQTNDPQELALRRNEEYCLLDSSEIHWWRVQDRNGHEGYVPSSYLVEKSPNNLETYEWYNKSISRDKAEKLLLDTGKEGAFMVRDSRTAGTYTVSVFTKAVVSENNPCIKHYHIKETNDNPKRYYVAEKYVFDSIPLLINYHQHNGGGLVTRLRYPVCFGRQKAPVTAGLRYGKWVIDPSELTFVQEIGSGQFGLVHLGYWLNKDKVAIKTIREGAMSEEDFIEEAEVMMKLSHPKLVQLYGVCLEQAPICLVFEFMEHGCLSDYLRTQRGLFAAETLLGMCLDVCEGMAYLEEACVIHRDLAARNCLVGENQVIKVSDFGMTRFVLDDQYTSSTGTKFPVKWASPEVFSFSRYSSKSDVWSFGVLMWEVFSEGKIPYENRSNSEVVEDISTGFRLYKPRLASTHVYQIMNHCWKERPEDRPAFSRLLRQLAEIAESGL
Give bare numbers, in nM.

Examples with their reported Ki follow.
In [3]: df
Out[3]:
                                   compound  reported_endpoint  readout_number
0  CC1(C)CCc2c(C(=O)Nc3cnn(C(c4ccccc4)[C@@H]4CNCCO4)c3)n[nH]c2C1 (single isomer, unassigned) [Example 66a]                 Ki             0.3
1  O=C(Nc1cnn(Cc2ccccc2)c1)c1n[nH]c2c1C1CC1CC2 (single isomer, unassigned) [Example 23a]                 Ki              24
2  COc1ccc(C(C)n2cc(NC(=O)c3n[nH]c4c3CCC(C)(C)C4)cn2)cn1 (single isomer, unassigned) [Example 109b]                 Ki              21
3  CN(C)CCC(c1ccccc1)n1cc(NC(=O)c2n[nH]c3c2CC2CC2(C)C3)cn1 (single isomer, unassigned) [Example 52a]                 Ki             0.2
4  Cn1cc(C(c2ccccc2)n2cc(NC(=O)c3n[nH]c4c3CC3CC3C4)cn2)cn1 (single isomer, unassigned) [Example 27a]                 Ki              30
5  CC1(C)CCc2c(C(=O)Nc3cnn(C(c4cccnc4)C4CC[S+]([O-])CC4)c3)n[nH]c2C1 (single isomer, unassigned) [Example 147d]                 Ki             0.6
6  CC1(C)CCc2c(C(=O)Nc3cnn(C(CN4CCOCC4=O)c4ccccc4)c3)n[nH]c2C1 (single isomer, unassigned) [Example 77a]                 Ki              20
7  CC1(C)CCc2c(C(=O)Nc3cnn(C(CCN4CC(F)(F)C4)c4ccccc4)c3)n[nH]c2C1 (single isomer, unassigned) [Example 121a]                 Ki               6
8  CCC(c1cccnc1)n1cc(NC(=O)c2n[nH]c3c2CCC(C)(C)C3)cn1 (single isomer, unassigned) [Example 54b]                 Ki               6
9  CC1(O)CCc2c(C(=O)Nc3cnn(Cc4ccccc4)c3)n[nH]c2C1 (stereo not shown) [Example 51b]                 Ki             860

Respectfully, I request Ki for each entry included below.
1. CC[C@@H](c1ccccc1)n1cc(NC(=O)c2n[nH]c3c2CC2CC2C3)cn1 (single isomer, unassigned) [Example 24b]
2. CC1(C)CCc2c(C(=O)Nc3cnn(C(c4cccc(C(C)(C)O)c4)C4CCS(=O)(=O)CC4)c3)n[nH]c2C1 (single isomer, unassigned) [Example 119b]
3. CC1CC(C(c2ccccc2)n2cc(NC(=O)c3n[nH]c4c3CCC(C)(C)C4)cn2)CCS1(=O)=O (single isomer, unassigned) [Example 139d]
4. CN1CCC2(CCc3c(C(=O)Nc4cnn(Cc5ccccc5)c4)n[nH]c3C2)C1=O (stereo not shown) [Example 123b]
5. CC1(C)CCc2c(C(=O)Nc3cnn(C(c4nccs4)C4CCS(=O)(=O)CC4)c3)n[nH]c2C1 (single isomer, unassigned) [Example 87a]

Output line:
1. 3.5
2. 4
3. 12
4. 4000
5. 0.4

* * *

Please provide measured Ki for the entries that follow.
Target protein (sequence): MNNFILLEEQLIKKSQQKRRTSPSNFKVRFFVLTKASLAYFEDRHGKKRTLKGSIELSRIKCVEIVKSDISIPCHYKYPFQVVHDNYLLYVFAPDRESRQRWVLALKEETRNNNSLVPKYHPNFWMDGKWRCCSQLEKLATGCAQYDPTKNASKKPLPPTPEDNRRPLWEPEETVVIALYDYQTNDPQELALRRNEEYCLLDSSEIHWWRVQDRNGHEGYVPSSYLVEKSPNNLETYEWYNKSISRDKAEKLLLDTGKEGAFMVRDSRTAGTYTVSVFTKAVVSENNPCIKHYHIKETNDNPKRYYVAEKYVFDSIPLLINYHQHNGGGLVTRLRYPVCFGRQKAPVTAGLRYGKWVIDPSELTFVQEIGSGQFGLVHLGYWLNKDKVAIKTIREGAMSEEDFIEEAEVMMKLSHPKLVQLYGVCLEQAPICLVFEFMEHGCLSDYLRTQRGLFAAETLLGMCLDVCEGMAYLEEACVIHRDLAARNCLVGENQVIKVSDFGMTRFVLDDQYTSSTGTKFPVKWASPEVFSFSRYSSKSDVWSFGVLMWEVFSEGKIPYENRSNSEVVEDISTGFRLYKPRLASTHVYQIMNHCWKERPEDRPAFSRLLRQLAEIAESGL
Note: a bare number is incomplete; add the unit.

>>> print(df.to_string())
                                   molecule  result
0  CC12Cc3c(C(=O)Nc4cnn(C(c5ccccc5)C5CCS(=O)(=O)CC5)c4)n[nH]c3C1C2 (single isomer, unassigned) [Example 152a]   42 nM

Give measured Ki for every item shown.
1. CC1(C)CCc2c(C(=O)Nc3cnn(C(c4cccc(S(C)(=O)=O)c4)C4CCOC4)c3)n[nH]c2C1 (single isomer, unassigned) [Example 126d]
2. C#CC1(C)CCc2c(C(=O)Nc3cnn(Cc4ccccc4)c3)n[nH]c2C1 (single isomer, unassigned) [Example 130a]
3. CC1(C)CCc2c(C(=O)Nc3cnn(C(c4cccnc4)C4CCS(=O)(=O)CC4)c3)n[nH]c2C1 (single isomer, unassigned) [Example 74a]
4. CC12Cc3[nH]nc(C(=O)Nc4cnn(C(c5cccnc5)C5CC[S+]([O-])CC5)c4)c3CC1C2 (single isomer, unassigned) [Example 146b]
5. CC1(C)CCc2c(C(=O)Nc3cnn(C(c4ccccc4)C4CCN(CCF)CC4)c3)n[nH]c2C1 (single isomer, unassigned) [Example 63a]

Output line:
1. 0.2 nM
2. 25 nM
3. 0.2 nM
4. 2 nM
5. 0.1 nM

Field: Ki. Fill in for each record below.
1. CC1(C)Cc2[nH]nc(C(=O)Nc3cnn(C(CS(C)(=O)=O)c4cccnc4)c3)c2C1 (single isomer, unassigned) [Example 97a]
2. CN(C)CCC(c1ccccc1)n1cc(NC(=O)c2n[nH]c3c2CC2CC2(C)C3)cn1 (single isomer, unassigned) [Example 52c]
3. CN(CCC(c1ccccc1)n1cc(NC(=O)c2n[nH]c3c2CCC(C)(C)C3)cn1)S(C)(=O)=O (stereo not shown)
4. CN(C)CC(c1ccccc1)n1cc(NC(=O)c2n[nH]c3c2CC2CC2(C)C3)cn1 (single isomer, unassigned) [Example 68a]
5. CC1(C)CCc2c(C(=O)Nc3cnn(C(CN4CCC4)c4ccccc4)c3)n[nH]c2C1 (single isomer, unassigned) [Example 57b]

Output line:
1: 2 nM; 2: 2 nM; 3: 4 nM; 4: 0.2 nM; 5: 12 nM

Provide Ki values for the following items, in order.
1. CC1(C)CCc2c(C(=O)Nc3cnn(C(c4ccccc4)C4CC[N+](C)([O-])CC4)c3)n[nH]c2C1 (single isomer, unassigned) [Example 140a]
2. CC(c1cnn(C)c1)n1cc(NC(=O)c2n[nH]c3c2CCC(C)(C)C3)cn1 (single isomer, unassigned) [Example 91a]

Output line:
["0.4 nM", "11 nM"]

* * *

In what follows, each item is paired with its Ki for ITK (Homo sapiens).
Answers are plain numbers, in nM.

>>> print(df.to_string())
                                   compound  unit_text  readout_number
0  O=C(Nc1cnn(Cc2ccccc2)c1)c1n[nH]c2c1CCCCC2         nM             140
1  CC1(C)CCc2c(C(=O)Nc3cnn(C(c4ccccc4)C4CS(=O)(=O)C4)c3)n[nH]c2C1 (single isomer, unassigned) [Example 89b]         nM               4

Hi there! I need Ki for each item below, if you can.
1. CC1(C)CCc2c(C(=O)Nc3cnn(C(c4ccnc(N)c4)C4CCOCC4)c3)n[nH]c2C1 (single isomer, unassigned) [Example 133b]
2. CC1(C)Cc2[nH]nc(C(=O)Nc3cnn(Cc4ccccc4)c3)c2CC1C#N (single isomer, unassigned) [Example 90a]
3. CC1(C)CCc2c(C(=O)Nc3cnn(C(c4cccnc4)C4CC[S+]([O-])CC4)c3)n[nH]c2C1 (single isomer, unassigned) [Example 147a]
4. CC1(C)CCc2c(C(=O)Nc3cnn(C(CCC#N)c4cccnc4)c3)n[nH]c2C1 (single isomer, unassigned) [Example 80a]
5. CC(c1cncs1)n1cc(NC(=O)c2n[nH]c3c2CCC(C)(C)C3)cn1 (single isomer, unassigned) [Example 98a]

Output line:
1: 2; 2: 570; 3: 0.6; 4: 2; 5: 8
